tested.on: TPH1 (Homo sapiens, UniProt P17752)
Construct: doubly truncated human TPH1 (ΔNH102-ΔCOOH402); made in house; host or cells: E. coli BL21(DE3)
Sequence (P17752 102-402): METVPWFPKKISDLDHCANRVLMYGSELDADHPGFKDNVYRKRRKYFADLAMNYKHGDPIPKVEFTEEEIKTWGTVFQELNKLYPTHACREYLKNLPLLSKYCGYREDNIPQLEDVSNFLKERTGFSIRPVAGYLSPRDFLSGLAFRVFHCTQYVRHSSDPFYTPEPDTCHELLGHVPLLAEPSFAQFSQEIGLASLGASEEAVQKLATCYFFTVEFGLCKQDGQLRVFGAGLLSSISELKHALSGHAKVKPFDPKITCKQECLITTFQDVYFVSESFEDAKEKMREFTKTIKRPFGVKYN
procedure.summary: Differential scanning fluorimetry (DSF) thermal stability assay
Type: binding
condition.info: DSF, 50 μM compound, vs averaged Tm of 0.5% DMSO controls; read-out: ΔTm (°C) ± SD (°C), primary screen
Cut-off 0.7 °C on ΔTm at 50 µM: below means 1 (yes), at or above means 0 (no).

1. Oc1ccccc1-c1nc2ccccc2o1 [2-(2-OH-phenyl)benzoxazol, 2-(2-hydroxyphenyl)benzoxazole, reference compound]    0 (no)
2. CC(C)c1cccc(=O)c(O)c1 [β-thujaplicin, reference compound]    1 (yes)
3. Cc1[nH]c2ccccc2c1CCNCc1ccc(/C=C/C(=O)NO)cc1 [panobinostat, reference compound]    1 (yes)
4. O=C(CCCCCCC(=O)Nc1ccccc1)NO [vorinostat, reference compound]    0 (no)
5. Nc1ccccc1NC(=O)c1ccc(CNc2nccc(-c3cccnc3)n2)cc1 [mocetinostat, reference compound]    1 (yes)
